Data credit: PubChem BioAssay (NCI)

tested on: OVCAR-4 ovarian; assay: NCI-60 one-dose screen, 48 h; conditions: 10 µM
The panel holds about 83,000 compounds, 20% with a hit somewhere; the sample as a whole holds those more often. Calls of active or inactive are those of the source. The calls were made as follows: active = growth percent below 10; inactive = the rest.
Possible outcomes: active, inactive

compound: Cc1cc(CSc2ccccc2C(=O)N2CC=C(c3ccccc3)CC2)on1
assigned class: inactive
//
compound: N#CC1=CC2CN(Cc3ccccc3)C1C1C(=O)N(c3ccccc3)C(=O)C21 (stereo not given)
assigned class: inactive
//
compound: CN1CCc2c(sc3nc4n(-c5ccc(Cl)cc5)cnn4c(=O)c23)C1
assigned class: inactive
//
compound: O=c1oc2c(cc1-c1ccc(F)cc1)C(O)Oc1ccccc1-2 (stereo not given)
assigned class: inactive
//
compound: CS(=O)(=O)c1nccc(-c2c(-c3cccc(OCc4ccccc4)c3)nc3sccn23)n1
assigned class: inactive
//
compound: COc1cc(N)c2ncccc2c1SC
assigned class: inactive
//
compound: Cc1c2cnccc2c(C)c2c1c1cc(O)ccc1n2C(C)C
assigned class: inactive
//
compound: CC(=O)[C@H]1CC[C@]2(C)[C@@H]1CC[C@@H]1[C@@]3(C)CC(CCC#N)(CCC#N)C(=O)C(C)(C)[C@@H]3CC[C@]12C
assigned class: inactive
//
compound: O=C1c2ccccc2C(=O)c2c1ccc(C(Br)Br)c2[N+](=O)[O-]
assigned class: active
//
compound: CCCC1(CN2c3ccccc3Sc3ccc(Cl)cc32)CCN(CC)C1 (stereo not given)
assigned class: inactive

###

test system: UO-31 renal; assay: NCI-60 one-dose screen, 48 h (100 = growth as untreated, 0 = no growth, -100 = all killed); settings: 10 µM
About 83,000 compounds went through this panel and 20% of them were active in at least one assay; those are over-represented in the sample as a whole.
Quick list: growth per entry.

compound: COc1ccc(Cl)cc1Nc1nc(C(F)(F)F)ccc1C(=O)N/N=C/c1cc(OC)c(OC)c(OC)c1
growth (%): 15.4

compound: Cc1c[nH]c(=O)n(Cc2nnc(CCC(=O)c3nc4ccccc4[nH]3)o2)c1=O
growth (%): 44.2

compound: CCOC(=O)c1cocc1C(=O)O
growth (%): 93.3

compound: COC(=O)c1c[nH]c2cc(OC(C)C)c(OC(C)C)cc2c1=O
growth (%): 84

compound: NC1=NC(c2ccccc2)C2=C(N1)/C(=C/c1ccccc1)CCC2 (configuration not stated)
growth (%): 70.5

compound: COc1ccc(-c2n[nH]nc2-c2cc(OC)c(OC)c(OC)c2)cc1
growth (%): 44.3

compound: Cc1cc(SC#N)cc(C(C)(C)C)c1O
growth (%): 93.6

compound: COc1ccc(CCN2CCC(Nc3nc4ccccc4n3Cc3ccc(F)cc3)CC2)cc1
growth (%): -19.8

compound: COc1ccc2nc3cc(Cl)ccc3c(N)c2c1
growth (%): -74

compound: COc1cc(-c2nn(-c3cccc(NC(=O)CN4CCOCC4)c3)cc2-c2cccnc2)ccc1Cl
growth (%): 68.6

compound: COc1cccc(-c2nc3sccn3c2-c2cccc(S(C)(=O)=O)c2)c1
growth (%): 73.1

compound: CN(C)c1ccc(/C=N/NC(=O)c2ccccc2Nc2cccc(C(F)(F)F)c2)cc1
growth (%): 77.2

compound: CC1CCCC(C(=O)O)C1C(=O)O (configuration not stated)
growth (%): 92.7

compound: CCCCC(CC)CN=C(N)NC(N)=NCCCCCCN=C(N)NC(N)=NCC(CC)CCCC (configuration not stated)
growth (%): 4.54

compound: COc1ccc(C(=O)N/N=C/c2cc(C(F)(F)F)ccc2Cl)cc1
growth (%): 88.9

compound: CC(C)C[C@H](NC(=O)Cn1cccc(CNC(=O)c2ccccc2)c1=O)B(O)O
growth (%): 50.9

compound: COc1cc(Cc2cc(-c3ccccc3)n[nH]c2=O)cc(OC)c1OC
growth (%): 58.3

compound: Cc1cc(CSc2ccccc2C(=O)N2CC=C(c3ccccc3)CC2)on1
growth (%): 88.1

compound: N#CCc1csc(Cc2ccccc2)n1
growth (%): 88.7

compound: O=C(CN(C1CCCCC1)C1CCCCC1)Nc1ccc(S(=O)(=O)c2ccc(NC(=O)CN(C3CCCCC3)C3CCCCC3)cc2)cc1
growth (%): 10.2

compound: C#CCOc1c(OC)cc(C(=O)/C(C)=C/c2cccc(N=[N+]=[N-])c2)cc1OC
growth (%): 50.9

compound: Cc1nc2n(c(=O)c1CCN1CCC(c3noc4cc(F)ccc34)CC1)CCC[C@@H]2O
growth (%): 80
